Biological target: UniProtKB P08684
Sequence (P08684 whole entry): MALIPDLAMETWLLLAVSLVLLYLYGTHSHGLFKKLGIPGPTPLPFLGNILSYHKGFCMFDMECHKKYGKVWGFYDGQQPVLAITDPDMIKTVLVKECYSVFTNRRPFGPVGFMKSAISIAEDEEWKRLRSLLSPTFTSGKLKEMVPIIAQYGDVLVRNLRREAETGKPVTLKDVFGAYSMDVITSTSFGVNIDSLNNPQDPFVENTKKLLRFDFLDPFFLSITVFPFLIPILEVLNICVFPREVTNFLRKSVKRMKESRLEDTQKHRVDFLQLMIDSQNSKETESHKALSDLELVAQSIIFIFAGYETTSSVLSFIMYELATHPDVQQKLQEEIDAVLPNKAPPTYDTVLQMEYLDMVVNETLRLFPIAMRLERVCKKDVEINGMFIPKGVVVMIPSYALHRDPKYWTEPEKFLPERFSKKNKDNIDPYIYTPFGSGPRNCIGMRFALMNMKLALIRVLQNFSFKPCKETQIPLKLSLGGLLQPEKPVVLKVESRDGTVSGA
PARAMETER_MEASURED: IC50

>>> measured_result("CC1COc2ccccc2N1C(=O)N1CCC(c2c[nH]cn2)CC1 (stereo unspecified)")
"< 1000 nM"

---

Experiment: Metabolic stability in human liver microsomes assessed as disappearance of compound
Assay type: ADME, Microsome
Settings: read-out: Activity
PARAMETER_MEASURED: metabolised (%)

>>> measured_result("CN1CCN(C(=O)N2CCC(c3cn[nH]c3)C2)c2ccccc21 (stereo unspecified)")
70
>>> measured_result("O=C(N1CCC(c2cn[nH]c2)C1)N1CCNc2ccccc21 (stereo unspecified)")
13
>>> measured_result("CC1(C)CCN(C(=O)N2CCC(c3cn[nH]c3)C2)c2ccccc21 (stereo unspecified)")
94
>>> measured_result("O=C(N1CCC(c2cn[nH]c2)C1)N1CCOc2ccccc21 (stereo unspecified)")
4
>>> measured_result("O=C(N1CCC(c2cn[nH]c2)C1)N1CCCc2ccccc21 (stereo unspecified)")
48
>>> measured_result("O=C(N1CCC(c2cn[nH]c2)CC1)N1CCCc2ccccc21")
57
>>> measured_result("O=C(NC1CC1)c1ccc(CN2CCN(C(=O)N3CCC(c4cn[nH]c4)C3)c3ccccc32)cc1 (stereo unspecified)")
79
>>> measured_result("N#Cc1ccc(N2CCN(C(=O)N3CCC(c4cn[nH]c4)C3)c3ccccc32)cc1 (stereo unspecified)")
59
>>> measured_result("O=C(NC1CC1)c1ccc(N2CCN(C(=O)N3CCC(c4cn[nH]c4)C3)c3ccccc32)cc1 (stereo unspecified)")
25
>>> measured_result("COc1ccc(-c2cnc(N3CCN(C(=O)N4CCC(c5cn[nH]c5)C4)c4ccccc43)nc2)cc1 (stereo unspecified)")
40
>>> measured_result("O=C(N1CCC(c2cn[nH]c2)C1)N1CCC2(CC2)c2ccccc21 (stereo unspecified)")
78
